# Test system: w794 DNA (SV40 DNA fragment, 144 bp)
# Measurement Description: DNA alkylation, thermally-induced strand cleavage of w794 DNA
# Type: biochemical
# Study Conditions: w794, 37° C., 72 hours (FIG. 13)
For each entry below, report its concentration of detectable DNA alkylation, unnatural enantiomers value.

Compound	Result
COc1ccc2c(c1)C13CC1CN(C(=O)c1cc4cc(OC)c(OC)c(OC)c4[nH]1)C3=CC2=O (stereo not shown)	10^-5 M
COc1ccc2c(c1)C13CC1CN(C(=O)c1cc4c5c(ccc4[nH]1)N(C(=O)c1cc4c6c(ccc4[nH]1)N(C(N)=O)CC6)CC5)C3=CC2=O (stereo not shown)	10^-6 to 10^-7 M

// for each compound in input: emit concentration of detectable DNA alkylation, unnatural enantiomers
1. COc1ccc2c(c1)C13CC1CN(C(=O)c1cc4cc(NC(=O)c5cc6ccccc6[nH]5)ccc4[nH]1)C3=CC2=O (stereo not shown)
2. COC(=O)c1cc2c([nH]1)C(=O)C=C1N(C(=O)c3cc4cc(OC)c(OC)c(OC)c4[nH]3)CC3CC123 (single isomer, unassigned; (+)) [(+)-duocarmycin SA, reference compound]

Key:
["10^-6 to 10^-7 M", "10^-5 M"]

---

# Measurement Description: Solvolysis reactivity (UV), aqueous buffer-CH3OH
# Type: physicochemical
# Study Conditions: pH 3, 50% CH3OH-buffer, 25° C.; read-out: solvolysis half-life t1/2 (converted)
# Experimental: The solvolysis was followed spectrophotometrically by UV with the disappearance of the long-wavelength absorption band of the MCBI chromophore ([…]) and with the appearance of a short-wavelength absorption band (266 nm) attributable to seco-N-BOC-MCBI (FIG. 9). […] Similarly, MCBI (240, 0.1 mg) was dissolved in CH3 OH (1.5 mL) and mixed with pH aqueous buffer (1.5 mL). […] The UV spectrum was recorded every 24 hours for two months. […]
Measurement Name: half-life

// for each compound in input: emit half-life
1. COc1ccc2c(c1)C13CC1CN(C(=O)OC(C)(C)C)C3=CC2=O (centres unmarked)
2. COc1ccc2c(c1)C13CC1CNC3=CC2=O (centres unmarked)

Key:
80 h
334 h

---

# Test system: w794 DNA (SV40 DNA fragment, 144 bp)
# Measurement Description: DNA alkylation, thermally-induced strand cleavage of w794 DNA
# Format: biochemical
# Study Conditions: 25° C., 24 hours; 254 vs 2, 266 vs 1
Measurement Name: selectivity and efficiency of DNA alkylation, natural enantiomers compared

Compound	Result
COC(=O)c1cc2c([nH]1)C(=O)C=C1N(C(=O)c3cc4cc(OC)c(OC)c(OC)c4[nH]3)CC3CC123 (single isomer, unassigned; (+)) [(+)-duocarmycin SA, reference compound]	indistinguishable
COc1ccc2c(c1)[C@@]13C[C@@H]1CN(C(=O)c1cc4cc(OC)c(OC)c(OC)c4[nH]1)C3=CC2=O [(+)-MCBI-TMI]	indistinguishable

---

For each entry below, report its cytotoxic potency of natural enantiomer relative to unnatural enantiomer value.
# System: L1210
# Measurement Description: In vitro cytotoxic activity
# Type: cell-based
# Study Conditions: fold, natural more potent than unnatural

Examples from the recorded data:
> print(dat)
                                   compound  result
1  COc1ccc2c(c1)[C@@]13C[C@@H]1CN(C(=O)c1cc4cc(OC)c(OC)c(OC)c4[nH]1)C3=CC2=O [(+)-MCBI-TMI]    50 ×
2  COc1ccc2c(c1)C13CC1CN(C(=O)c1cc4c5c(ccc4[nH]1)N(C(=O)c1cc4c6c(ccc4[nH]1)N(C(N)=O)CC6)CC5)C3=CC2=O (stereo not shown)   1-3 ×
3  COc1ccc2c(c1)C13CC1CN(C(=O)c1cc4c5c(ccc4[nH]1)N(C(N)=O)CC5)C3=CC2=O (stereo not shown)   1-3 ×

Please turn your attention to the following entry.
Exercise: Give recorded cytotoxic potency of natural enantiomer relative to unnatural enantiomer with L1210 for the following compound: COc1ccc2c(c1)C13CC1CN(C(=O)c1cc4cc(NC(=O)c5cc6ccccc6[nH]5)ccc4[nH]1)C3=CC2=O (stereo not shown)
Key: 1-3 ×
